# Study System: CXCR2 (Homo sapiens)
# Construct: expressed in transfected cells
# Sequence (P25025 1-360): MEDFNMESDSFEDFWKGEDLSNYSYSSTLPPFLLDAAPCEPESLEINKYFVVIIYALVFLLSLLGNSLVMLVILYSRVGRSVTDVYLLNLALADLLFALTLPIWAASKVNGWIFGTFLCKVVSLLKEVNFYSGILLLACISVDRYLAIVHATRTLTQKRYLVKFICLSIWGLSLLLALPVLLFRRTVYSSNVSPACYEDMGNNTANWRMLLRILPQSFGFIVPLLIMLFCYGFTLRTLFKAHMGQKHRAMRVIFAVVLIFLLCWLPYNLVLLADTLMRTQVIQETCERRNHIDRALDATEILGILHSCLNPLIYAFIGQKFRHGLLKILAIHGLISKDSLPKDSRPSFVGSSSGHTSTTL
# Experimental Protocol: Figure S2a opioid peptide screen on chemokine receptors
# Type: cell-based
# Design: dose or concentration left out as unconfirmed
# Condition: replicate 2, read-out: CXCR2 activity, ctrl+ = 100
Starred links: 1 amine or outer side, 2 acyl side, 3 side chain; linkers in the order of their positions; H or OH if unused. Non-standard residues stand in square brackets, D forms with d. Residues, ends and D or L forms follow the SMILES beside them. X1 = N[C@@H](Cc1ccccc1)CN(CC(=O)[*:2])[*:1]
This listing pairs compounds with measured activation.
In your response, the unit should come after the numeric value.

C[C@H](NC(=O)CNC(=O)[C@@H](NC(=O)[C@H](Cc1ccccc1)NC(=O)CNC(=O)CNC[C@@H](N)Cc1ccccc1)[C@@H](C)O)C(=O)N[C@@H](CCCNC(=N)N)C(=O)N[C@@H](CCCCN)C(=O)N[C@@H](CO)C(=O)N[C@@H](C)C(=O)N[C@@H](CCCNC(=N)N)C(=O)N[C@@H](CCCCN)C(N)=O [FG Nociceptin 1-13] (H-[X1]GFTGARKSARK-NH2) | -6.16%

Now take the following compound into account.
Q: Param item = NC(=O)[C@H](Cc1ccccc1)NC(=O)[C@H](Cc1c[nH]c2ccccc12)NC(=O)[C@@H]1CCCN1C(=O)[C@@H](N)Cc1ccc(O)cc1 [Endomorphin-1] ; retrieve measured activation.
A: -3.23%
